- target entity: T1, MAGEB2 peptide … (SEQ ID NO: 1) complexed with HLA-A*02:01 on the cell surface (human)
- T1 construct: whole, on cells; also called pMAGE-HLA; MAGEB2 pMHC
- assay comment: flow cytometry, peptide-loaded T2 cells;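 note: binding of single-chain Fv antibody constructs, raised in XenoMouse, to peptide-pulsed T2 cells measured by flow cytometry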
Signal/background values by entry
test readout: Signal/background

[[record]]
binder = "18181-G10 (scFv, scFv in bacterial lysate, detected with anti-Flag M2) scFv: EVQLLESGPGLVKPSQTLSLTCTVSGDSISSNPYYWSWIRQLPGKGLEWIGYISYSGSTFYNPSLKSRVTISVDTSKNQFSLNLTSVTAADTAVYYCARDRLWFGVLNYYYGMDVWGLGTTVTVSSGGGGSGGGGSGGGGSELVMTQSPLSLPVTPGEPASISCRSSQSLLHSTGYNYVDWYLQKPGQSPQLLIYLGSNRASGVPDRFSGSGSGTDFTLKISRVEAEDVGFYYCMQALQTPRTFGQGTKVEIK"
test_readout = "Signal/background"
test_value = 121

[[record]]
binder = "18182-E10 (scFv, scFv in bacterial lysate, detected with anti-Flag M2) scFv: EVQLLESGGGLVQPGGSLRLSCAASGFTFSSHAMSWVRQAPGQGLEWVSSISGSGGGTYYAASVKGRFTISRDNSKNTLYLQMNSLRAEDTAVYYCATGKGVHLNFDYWGQGTLVTVSSGGGGSGGGGSGGGGSELALTQPASASVAPGQTARITCGGNNIGSKSVHWHQQKPGQAPVLVVYDDNDRPSGIPERFSGSNSGNTATLTISRVEAGDEADFYCQVWDSSSDHVVFGGGTKLTVL"
test_readout = "Signal/background"
test_value = 273

[[record]]
binder = "18179-D11 (scFv, scFv in bacterial lysate, detected with anti-Flag M2) scFv: EVQLLESGGGLVKPGGSLRLSCAASGFTFSNAWMSWVRQAPGKGLEWVGRIKGNTYGGTTDYAAPVKGRFTISRDDSKNTLFLQMNSLKTEDTAVYYCTTPSYSGSYYNYFSVMDVWGQGTTVTVSSGGGGSGGGGSGGGGSELQMTQSPSSLSASVGDRVTITCRTSQSISSYLNWYQQKPGRAPKLLIFAASSLQGGVPSRFSGSGSGTDFTLTISSLQPEDFATYYCQQTYSMPFTFGPGTKVDIK"
test_readout = "Signal/background"
test_value = 345

[[record]]
binder = "18089-B2 (scFv, scFv in bacterial lysate, detected with anti-Flag M2) scFv: EVQLLESGGGLVQPGGSLRLSCAASGFTFSSYAMSWVRQAPGRGLEWVSTISISGGSTNYADSVKGRFTISRDNSKNTLYLQMNSLRAEDTAVYYCAKDGGSGWFPKLLHYGLDVWGQGTTVTVSSGGGGSGGGGSGGGGSELQMTQSPSSLSASVGDRVTITCQASQDISNYLNWYQQKPGKAPKLLIYAASSLQSGVPSRFSGSGSGTDFTLTISSLQPEDFATYYCQQSYSIPLTFGGGTKVEIK"
test_readout = "Signal/background"
test_value = 318

[[record]]
binder = "18179-A7 (scFv, scFv in bacterial lysate, detected with anti-Flag M2) scFv: EVQLLESGGGLVKPGGSLRLSCAASGFTFSNAWMSWVRQAPGKGLEWVGRIKGNTYGGTTDYAAPVKGRFTISRDDSKNTLFLQMNSLKTEDTAVYYCTTPSYSGSYYNYFSVMDVWGQGTTVTVSSGGGGSGGGGSGGGGSELVMTQSPSSLSASVGDRVTITCRTSQSISSYLNWYQQKPGRAPKLLIFAASSLQGGVPSRFSGSGSGTDFTLTISSLQPEDFATYYCQQTYSMPFTFGPGTKVDIK"
test_readout = "Signal/background"
test_value = 267

[[record]]
binder = "18181-C9 (scFv, scFv in bacterial lysate, detected with anti-Flag M2) scFv: EVQLLESGPGLVKPSQTLSLTCTVSGDSISSNPYYWSWIRQLPGKGLEWIGYISYSGSTFYNPSLKSRVTISVDTSKNQFSLNLTSVTAADTAVYYCARDRLWFGVLNYYYGMDVWGLGTTVTVSSGGGGSGGGGSGGGGSELVLTQSPLSLPVTPGEPASISCRSSQSLLHRNGYNYLDWYLQKPGQSPQLLIYLGSNRASGVPDRFSGSGSGTDFTLKISRVEAEDVGVYYCMQGLQTPFTFGPGTKVEIK"
test_readout = "Signal/background"
test_value = 140

[[record]]
binder = "18179-C1 (scFv, scFv in bacterial lysate, detected with anti-Flag M2) scFv: EVQLLESGAEVKKPGASVKVSCKASGYTFTRNGLSWVRQAPGQGLEWMGWISGYNGDTNYAQKLQGRGTMTTDTSTSTAYMELRSLRSDDTAVYYCARGRATFDYWGQGTLVTVSSGGGGSGGGGSGGGGSELVMTQSPSSLSASVGDRVTITCRASQGISNYLAWYQQKPGKVPKLLISAASTLQSGVPSRFSGSGSGTDFTLTISSLQPEDVATYYCQKYNSAPFTFGPGTKVDIK"
test_readout = "Signal/background"
test_value = 43

